targetDesc: Adenosine receptor A1 (Rattus norvegicus, UniProt P25099)
Sequence (P25099 whole entry): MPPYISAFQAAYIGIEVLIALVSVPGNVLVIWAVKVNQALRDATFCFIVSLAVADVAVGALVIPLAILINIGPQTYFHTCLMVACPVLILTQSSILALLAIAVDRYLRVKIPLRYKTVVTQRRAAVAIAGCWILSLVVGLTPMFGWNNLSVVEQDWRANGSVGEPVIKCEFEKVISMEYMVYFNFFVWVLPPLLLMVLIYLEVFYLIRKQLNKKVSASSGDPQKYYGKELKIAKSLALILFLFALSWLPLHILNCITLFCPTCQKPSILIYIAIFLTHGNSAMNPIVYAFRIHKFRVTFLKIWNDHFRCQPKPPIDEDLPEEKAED
methodDescription: Displacement of [3H]DPCPX (without GTP) from Adenosine A1 receptor of rat cortical membrane
measurementConditions: read-out: Ki
Label Fulfilled when Ki < 2000 nM; otherwise Not fulfilled.

Some solved cases for reference:
{"compound": "CCCNc1nc2c(N)ncnc2n1C1O[C@H](CO)[C@@H](O)[C@H]1O (stereo partly specified)", "categoryLabel": "Not fulfilled"}
{"compound": "CCCNc1ncnc2c1nc(NC1CCCC1)n2C1O[C@H](CO)[C@@H](O)[C@H]1O (stereo partly specified)", "categoryLabel": "Fulfilled"}
{"compound": "CCCCNc1ncnc2c1nc(NC1CCCC1)n2[C@@H]1O[C@H](CO)[C@@H](O)[C@H]1O", "categoryLabel": "Fulfilled"}
{"compound": "CNc1ncnc2c1nc(NC1CCCC1)n2[C@@H]1O[C@H](CO)[C@@H](O)[C@H]1O", "categoryLabel": "Not fulfilled"}
{"compound": "CCCCNc1nc2c(NC3CCCC3)ncnc2n1C1O[C@H](CO)[C@@H](O)[C@H]1O (stereo partly specified)", "categoryLabel": "Fulfilled"}
{"compound": "CCNc1ncnc2c1nc(NC1CCCC1)n2[C@@H]1O[C@H](CO)[C@@H](O)[C@H]1O", "categoryLabel": "Fulfilled"}

Bench note: check whether `CCNc1nc2c(NC3CCCC3)ncnc2n1[C@@H]1O[C@H](CO)[C@@H](O)[C@H]1O` shows Ki below 2000 nM
Fulfilled

Bench note: check whether CCNc1nc2c(N)ncnc2n1C1O[C@H](CO)[C@@H](O)[C@H]1O (stereo partly specified) shows Ki below 2000 nM
Not fulfilled

====

Overview of recorded Ki for various compounds
targetDesc: Adenosine receptor A1 (Rattus norvegicus)
methodDescription: Displacement of [3H]DPCPX (with GTP) from Adenosine A1 receptor of rat cortical membrane
Note: unit µM is implicit; provide only the numeric part.

Study these solved cases before continuing.
{"compound": "CNc1ncnc2c1nc(NC1CCCC1)n2[C@@H]1O[C@H](CO)[C@@H](O)[C@H]1O", "targetDesc": "Adenosine receptor A1 (Rattus norvegicus)", "measurementLabel": "Ki", "testValue": 15.7}
{"compound": "CCCNc1nc2c(N)ncnc2n1C1O[C@H](CO)[C@@H](O)[C@H]1O (some centres undefined)", "targetDesc": "Adenosine receptor A1 (Rattus norvegicus)", "measurementLabel": "Ki", "testValue": 34.7}
{"compound": "CNc1nc2c(N)ncnc2n1[C@@H]1O[C@H](CO)[C@@H](O)[C@H]1O", "targetDesc": "Adenosine receptor A1 (Rattus norvegicus)", "measurementLabel": "Ki", "testValue": 18.6}

// moving on: another record for Ki
Note to self: Ki of `CCCCNc1nc2c(N)ncnc2n1[C@@H]1O[C@H](CO)[C@@H](O)[C@H]1O` with Adenosine receptor A1 (Rattus norvegicus) was 45.5

====

targetDesc: Adenosine receptor A1 (Rattus norvegicus, UniProt P25099)
methodDescription: Displacement of [3H]DPCPX (with GTP) from Adenosine A1 receptor of rat cortical membrane
Overview of recorded Ki for various compounds

{"compound": "CCCNc1ncnc2c1nc(NC1CCCC1)n2C1O[C@H](CO)[C@@H](O)[C@H]1O (some centres undefined)", "Ki": "1.76 µM"}
{"compound": "CCNc1ncnc2c1nc(NC1CCCC1)n2[C@@H]1O[C@H](CO)[C@@H](O)[C@H]1O", "Ki": "1.26 µM"}
{"compound": "CCCNc1nc2c(NC3CCCC3)ncnc2n1[C@@H]1O[C@H](CO)[C@@H](O)[C@H]1O", "Ki": "1.05 µM"}
{"compound": "CCCCNc1ncnc2c1nc(NC1CCCC1)n2[C@@H]1O[C@H](CO)[C@@H](O)[C@H]1O", "Ki": "0.86 µM"}

Measured Ki, CCCCNc1nc2c(NC3CCCC3)ncnc2n1C1O[C@H](CO)[C@@H](O)[C@H]1O (some centres undefined) : 1.13 µM

Measured Ki, `CNc1nc2c(NC3CCCC3)ncnc2n1[C@@H]1O[C@H](CO)[C@@H](O)[C@H]1O` : 0.98 µM
